# Test system: EPHB3
# measurementParameters: concentration: 1 μM, replicates: in singlicate; n = 1;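 further: KINOMEscan kinase panel screen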
endpoint: %Inh (%)

INSERT INTO measurements (compound, subjectoftest, testresult) VALUES
  ('CN1c2ccc(-c3ccc(C(N)=O)cc3)cc2-c2[nH]ncc2S1(=O)=O', 'EPHB3', 5),
  ('COc1cc2ncnc(Nc3cccc(Br)c3)c2cc1OC.Cl [GI230329]', 'EPHB3', 1),
  ('Fc1ccc(-c2nn3cccc(F)c3c2-c2ccncc2)cc1 [GW475620]', 'EPHB3', 31),
  ('CCn1c(-c2c(N)noc2C)nc2cnccc21 [SB-737856]', 'EPHB3', 26),
  ('Cl.Cl.Cl.N#Cc1ccc(CCNc2nccc(-c3cccc(CN4CCNCC4)c3)n2)cc1 [GSK2137462]', 'EPHB3', 15);

---

# Test system: LATS1
# measurementParameters: concentration: 1 μM, replicates: in singlicate; n = 1
In this section, each of the molecules is paired with its reported %Inh.
endpoint: %Inh (%)

INSERT INTO assay_data (structure, uom, testresult) VALUES
  ('COc1cc2ncnc(Nc3cccc(Br)c3)c2cc1OC.Cl', '%', 0),
  ('Cc1c(Cn2c3ccccc3n3c(=O)cc(N4CCOCC4)nc23)cccc1C(F)(F)F', '%', 0),
  ('O=C(Nc1n[nH]c2nc(-c3cccs3)c(Br)cc12)C1CCCC1', '%', 20),
  ('Nc1cccc(-c2ccc3c(N)n[nH]c3c2)n1', '%', 0),
  ('Nc1nccc(-c2c(-c3ccc(F)cc3)ncn2C2CCN(Cc3ccccc3)CC2)n1', '%', 13),
  ('Cc1cnc(N)c(/C=C/c2cncc(C(=O)NCCc3ccc(Cl)cc3Cl)c2)c1.Cl', '%', 0),
  ('COc1ccc(CSc2nnc(-c3ccc4ncsc4c3)o2)cc1C(F)(F)F', '%', 12),
  ('COc1ccc(Nc2nccc(-c3ccc(NC(=O)c4cc5cc(F)ccc5[nH]4)cc3)n2)cc1', '%', 0),
  ('O=C(Nc1n[nH]c2cc(-c3ccsc3)ccc12)C1CC1', '%', 2),
  ('Nc1ncnc2occ(-c3ccc4c(c3)CCN4C(=O)Cc3cc(F)ccc3F)c12', '%', 0),
  ('CS(=O)(=O)CCNCc1nc(-c2ccc3ncnc(Nc4ccc(OCc5ccccc5)c(Cl)c4)c3c2)cs1.Cl', '%', 0),
  ('Cn1cnc2c(N)ncnc21', '%', 22),
  ('CC[C@@H]1CO[C@H](C(=O)Nc2ccccc2)CN1c1cc(-c2ccc3c(N)n[nH]c3c2)nc(NC)n1', '%', 0),
  ('COc1ccc(CSc2nnc(-c3ccc4nccn4c3)o2)cc1C(F)(F)F', '%', 24);

---

# Tested on: STK16
# measurementParameters: concentration: 1 μM, replicates: in singlicate; n = 1
endpoint: %Inh (%)

INSERT INTO measurements (compound, endpoint, uom, testresult) VALUES
  ('COc1ccc(Nc2nccc(NCCNC(=O)Nc3cc(C)ccc3C)n2)cc1 [GSK1379899]', '%Inh', '%', 0),
  ('Fc1ccc(-c2nc[nH]c2-c2ccncc2)cc1 [SB-217360]', '%Inh', '%', 14),
  ('Cc1ccc(NC(=O)Nc2ccc(Cl)c(C(F)(F)F)c2)cc1-c1ccc(C(=O)Nc2ccncc2)cc1 [GSK1398470]', '%Inh', '%', 0),
  ('CSc1ccc(-c2nc3n(c2-c2ccncc2)CCC3)cc1 [SKF-105561]', '%Inh', '%', 4);
